System: Streptococcus pneumoniae
Assay: Antimicrobial activity against Streptococcus pneumoniae 1095
Assay type: functional
attribute measured: log10(MIC) (log10 of the value in µg/mL)
Log10 applied to MIC; unit prior to transform: µg/mL.

{"columns": ["compound", "log10(MIC)"],
 "data": [
  ["C/C(=C\\c1cc(F)c(OCCCF)cc1F)C(=O)N[C@@H]1[C@H](O)[C@@H](O)[C@H]2OCO[C@H]2[C@@H]1OCC1CCOC1 (stereo partly specified)", 0.00],
  ["COCCCO[C@@H]1[C@H](NC(=O)/C(C)=C/c2cc(F)c(OCCCF)cc2F)[C@H](O)[C@@H](O)[C@H]2OCO[C@H]21", 0.60]
]}

Can you share its log10(MIC)? I mean this compound: "C/C(=C\c1cc(F)c(OCCCF)cc1F)C(=O)N[C@@H]1[C@H](O)[C@@H](O)[C@H]2OCO[C@H]2[C@@H]1OCCCF"
-0.60

Can you share its log10(MIC)? I mean this compound: "CCO[C@@H]1[C@@H](O)[C@H]2OCO[C@H]2[C@H](O)[C@@H]1NC(=O)/C(C)=C/c1cc(F)c(OCCCF)cc1F"
0.90

Can you share its log10(MIC)? I mean this compound: CC(=O)[C@H]1O[C@@H](Oc2ccc(/C=C(\C)C(=O)N[C@@H]3[C@H](O)[C@@H](O)[C@H]4OCO[C@H]4[C@@H]3O)cc2O)[C@@H](O)[C@@H]1O [HYGROMYCIN A]
1.10
